System: MCF-7
Test: drug sensitivity score (DSS) (DSS (dimensionless)); higher = more sensitive; extreme values may be limits of the assay
Settings: 4-OH-tamoxifen in medium 1 µM; 72 h
Binary call on drug sensitivity score: 1 from 0.8 upward, 0 beneath that.

molecule	answer_label
C[C@]12CC[C@@H]3c4ccc(O)cc4C[C@@H](CCCCCCCCC[S+]([O-])CCCC(F)(F)C(F)(F)F)[C@H]3[C@@H]1CC[C@@H]2O (some centres undefined)	0
C[C@@H]1CCN(C(=O)CC#N)C[C@@H]1N(C)c1ncnc2[nH]ccc12	0
COc1cc([C@@H]2c3cc4c(cc3[C@@H](O[C@@H]3O[C@@H]5CO[C@@H](C)O[C@H]5[C@H](O)[C@H]3O)[C@H]3COC(=O)[C@H]23)OCO4)cc(OC)c1O [Etoposide]	0
CC[C@@]1(O)C(=O)OCc2c1cc1n(c2=O)Cc2cc3c(CN(C)C)c(O)ccc3nc2-1	1
Clc1ccc(Nc2nnc(Cc3ccncc3)c3ccccc23)cc1	0
CC(C)C[C@H](NC(=O)[C@H](Cc1ccccc1)NC(=O)c1cnccn1)B(O)O	1
Nc1ccccc1NC(=O)c1ccc(CNc2nccc(-c3cccnc3)n2)cc1	1
CCc1cncnc1N1CCN(Cc2nc3ccc(C(F)(F)F)cc3[nH]2)CC1	1
CC1(C)CNc2cc(NC(=O)c3cccnc3NCc3ccncc3)ccc21	0
Cn1cc(C2=C(c3cn(C4CCN(Cc5ccccn5)CC4)c4ccccc34)C(=O)NC2=O)c2ccccc21	0
CO[C@H]1C[C@@H]2CC[C@@H](C)[C@@](O)(O2)C(=O)C(=O)N2CCCC[C@H]2C(=O)O[C@H]([C@H](C)C[C@@H]2CC[C@@H](OC(=O)C(C)(CO)CO)[C@H](OC)C2)CC(=O)[C@H](C)/C=C(\C)[C@@H](O)[C@@H](OC)C(=O)[C@H](C)C[C@H](C)/C=C/C=C/C=C/1C	1
O=P(O)(O)C(O)(Cn1ccnc1)P(=O)(O)O	0
COc1c2occc2cc2ccc(=O)oc12	0

* * *

Let's look at some compounds and their measured relative IC50.
Test system: ZR-75-1
Test: relative IC50 (midpoint of fitted logistic curve, plateau may be below 50% inhibition; CellTiter-Glo viability); higher = less potent
Details: 4-OH-tamoxifen in medium 0 µM; 72 h

compound	relative IC50
C[C@@H](Oc1cc(-c2cnn(C3CCNCC3)c2)cnc1N)c1c(Cl)ccc(F)c1Cl [Crizotinib]	> 1 µM
CN(N=O)C(=O)N[C@@H](C=O)[C@@H](O)[C@H](O)[C@H](O)CO [Streptozocin]	> 10 µM
Oc1ccc2c(c1)CC[C@H](c1ccccc1)[C@@H]2c1ccc(OCCN2CCCC2)cc1 [Lasofoxifene]	> 1 µM
C[C@]1(O)C[C@@H](c2nc(-c3ccc4ccc(-c5ccccc5)nc4c3)c3c(N)nccn32)C1 [Linsitinib (OSI-906)]	> 10 µM
C[C@@H]1C[C@H]2[C@@H]3CCC4=CC(=O)C=C[C@]4(C)[C@@]3(F)[C@@H](O)C[C@]2(C)[C@@]1(O)C(=O)CO [Dexamethasone (Decadron)]	> 10 µM
O=C(CCBr)N1CCN(C(=O)CCBr)CC1 [Pipobroman]	> 10 µM
COC(=O)c1ccc2c(c1)NC(=O)/C2=C(\Nc1ccc(N(C)C(=O)CN2CCN(C)CC2)cc1)c1ccccc1 [Nintedanib (BIBF 1120)]	> 10 µM
CC(C)C(=O)Nc1ccc([N+](=O)[O-])c(C(F)(F)F)c1 [Flutamide]	> 10 µM
Cc1cn(-c2cc(NC(=O)c3ccc(C)c(Nc4nccc(-c5cccnc5)n4)c3)cc(C(F)(F)F)c2)cn1 [Nilotinib]	> 10 µM
CC[C@]1(O)C[C@H]2CN(CCc3c([nH]c4ccccc34)[C@@](C(=O)OC)(c3cc4c(cc3OC)N(C=O)[C@H]3[C@@](O)(C(=O)OC)[C@H](OC(C)=O)[C@]5(CC)C=CCN6CC[C@]43[C@@H]65)C2)C1 [Vincristine]	0.00369 µM
COc1cc2c(cc1O)CC[C@@H]1[C@@H]2CC[C@]2(C)[C@@H](O)CC[C@@H]12 [2-methoxyestradiol (Panzem)]	4.13 µM
CC[C@H](Nc1ncnc2[nH]cnc12)c1nc2cccc(F)c2c(=O)n1-c1ccccc1 [CAL-101]	1.21 µM
CO[C@@H](C(=O)N1Cc2[nH]nc(NC(=O)c3ccc(N4CCN(C)CC4)cc3)c2C1)c1ccccc1	> 10 µM

* * *

Test system: T-47D Tam2
Assay: viability inhibition at highest dose (% inhibition); higher = more growth inhibition
Settings: 4-OH-tamoxifen in medium 1 µM; 72 h
value_type: viability inhibition at highest dose

molecule	system	value_type	test_result
Nc1cc(C(F)(F)F)c(-c2cc(N3CCOCC3)nc(N3CCOCC3)n2)cn1 [Buparlisib (BKM-120)] (drug 10000 nM)	T-47D Tam2	viability inhibition at highest dose	71.3
NC(=O)Nc1cc(-c2cccc(F)c2)sc1C(=O)N[C@H]1CCCNC1 [AZD7762] (drug 1000 nM)	T-47D Tam2	viability inhibition at highest dose	29.3
CC1=C2C[C@H]3[C@@H](CC=C4C[C@@H](O)CC[C@@]43C)[C@@H]2CC[C@]12O[C@@H]1C[C@H](C)CN[C@H]1[C@H]2C [Cyclopamine] (drug 10000 nM)	T-47D Tam2	viability inhibition at highest dose	1.98

* * *

Let's look at some molecules and their measured drug sensitivity score.
System: MCF-7
Test: drug sensitivity score (DSS) (DSS (dimensionless)); higher = more sensitive; extreme values may be limits of the assay
Conditions: 4-OH-tamoxifen in medium 1 µM; 72 h
Structures can show the parent of a compound that is named as a salt.
value_type: drug sensitivity score

>>> print(df.to_string())
                                    molecule  test_result
 0                     S=c1[nH]cnc2nc[nH]c12         2.88
 1  CNCc1ccc(-c2[nH]c3cc(F)cc4c3c2CCNC4=O)cc1            0
 2  Nc1cc(C(F)(F)F)c(-c2cc(N3CCOCC3)nc(N3CCOCC3)n2)cn1          9.9
 3  COc1cccc2c1C(=O)c1c(O)c3c(c(O)c1C2=O)C[C@@](O)(C(C)=O)C[C@@H]3O[C@H]1C[C@H](N)[C@H](O)[C@H](C)O1          7.3
 4  C[C@]12C=CC(=O)C=C1CC[C@@H]1[C@@H]2[C@@H](O)C[C@@]2(C)[C@H]1CC[C@]2(O)C(=O)CO        0.407
 5  COc1cc2c(Oc3ccc4[nH]c(C)cc4c3F)ncnc2cc1OCCCN1CCCC1            0
 6  CC(C)C[C@@H](C(=O)N[C@H](C(=O)OC1CCCC1)c1ccccc1)[C@H](O)C(=O)NO         3.62
 7  CC/C(=C(\c1ccccc1)c1ccc(OCCN(C)C)cc1)c1ccccc1 [Tamoxifen citrate]         3.99
 8  O=C(Nc1cccnc1)N1CCC(Cc2cccc(Oc3ccc(C(F)(F)F)cn3)c2)CC1         19.2
 9                           CCCC(CCC)C(=O)O            0
10  CC(C)C[C@H](NC(=O)[C@H](CCc1ccccc1)NC(=O)CN1CCOCC1)C(=O)N[C@@H](Cc1ccccc1)C(=O)N[C@@H](CC(C)C)C(=O)[C@@]1(C)CO1           21
11  COc1cc(Nc2ncc(F)c(Nc3ccc4c(n3)N(COP(=O)(O)O)C(=O)C(C)(C)O4)n2)cc(OC)c1OC         4.99
12  CN[C@@H]1C[C@H]2O[C@@](C)([C@@H]1OC)n1c3ccccc3c3c4c(c5c6ccccc6n2c5c31)C(=O)N[C@H]4O         15.8
13  COc1ccc(-c2cc3c(C)nc(N)nc3n([C@H]3CC[C@H](OCCO)CC3)c2=O)cn1         16.4
14   O=P(O)(NCCCl)NCCCl [Ifosfamide mustard]            0
15  CN(C)CCN1C(=O)c2cccc3cc(N)cc(c23)C1=O [Amonafide]        0.126

* * *

System: T-47D Tam1
Test: drug sensitivity score (DSS) (DSS (dimensionless)); higher = more sensitive; extreme values may be limits of the assay
Conditions: 4-OH-tamoxifen in medium 1 µM; 72 h
Let's look at some molecules and their measured drug sensitivity score.
value_type: drug sensitivity score

molecule	value_type	test_result
CNNCc1ccc(C(=O)NC(C)C)cc1 [Procarbazine]	drug sensitivity score	0
CC1(C)NC(=O)N(c2ccc([N+](=O)[O-])c(C(F)(F)F)c2)C1=O [Nilutamide]	drug sensitivity score	0
O=NN(CCCl)C(=O)NCCCl [Carmustine]	drug sensitivity score	0
CN1CCN(c2ccc3nc(-c4c(N)c5c(F)cccc5[nH]c4=O)[nH]c3c2)CC1 [Dovitinib (CHIR-258)]	drug sensitivity score	0
CC[C@]1(O)C[C@@H]2CN(CCc3c([nH]c4ccccc34)[C@@](C(=O)OC)(c3cc4c(cc3OC)N(C)[C@H]3[C@@](O)(C(=O)OC)[C@H](OC(C)=O)[C@]5(CC)C=CCN6CC[C@]43[C@@H]65)C2)C1 [Vinblastine]	drug sensitivity score	6.59
CCCC(CCC)C(=O)O [Valproic acid]	drug sensitivity score	0
COc1nc(N)nc2c1ncn2[C@@H]1O[C@H](CO)[C@@H](O)[C@@H]1O [Nelarabine]	drug sensitivity score	0
CNC(=O)c1ccc(N2C(=S)N(c3ccc(C#N)c(C(F)(F)F)c3)C(=O)C23CCC3)cc1F [RD162]	drug sensitivity score	0
CN1CCc2c(c3ccccc3n2Cc2ccc(C(=O)NO)cc2)C1 [Tubastatin A]	drug sensitivity score	0
C=CCNC1=C2C[C@@H](C)C[C@H](OC)[C@H](O)[C@@H](C)/C=C(\C)[C@H](OC(N)=O)[C@@H](OC)/C=C\C=C(/C)C(=O)NC(=CC1=O)C2=O [Tanespimycin (17-AAG)]	drug sensitivity score	3.79
Cn1c(=O)c(F)c(Nc2ccc(I)cc2F)c2c(=O)n(C[C@@H](O)CO)cnc21 [TAK-733]	drug sensitivity score	3.14
CC1(C)CNc2cc(NC(=O)c3cccnc3NCc3ccncc3)ccc21 [Motesanib (AMG-706)]	drug sensitivity score	0
Cc1cc(C(C)Nc2ccccc2)c2nc(N3CCOCC3)cc(=O)n2c1 (stereo unspecified) [TGX-221]	drug sensitivity score	0.102
O=P(O)(NCCCl)NCCCl [Ifosfamide mustard]	drug sensitivity score	0
COc1cccc2c1C(=O)c1c(O)c3c(c(O)c1C2=O)C[C@@](O)(C(C)=O)C[C@@H]3O[C@H]1C[C@H](N)[C@H](O)[C@H](C)O1 [Daunorubicin]	drug sensitivity score	6.95
NC(=O)c1cccc2cn(-c3ccc([C@@H]4CCCNC4)cc3)nc12 [MK-4827]	drug sensitivity score	0
